The values you see were collected from the supplement of paper PMC10065799.

target: EPHB1 (UniProt P54762); experiment: phosphorylation enrichment, bacterial display (enrichment ratio); higher = better substrate or ligand; peptides without Tyr show the background
Sequence (P54762 whole entry, looked up): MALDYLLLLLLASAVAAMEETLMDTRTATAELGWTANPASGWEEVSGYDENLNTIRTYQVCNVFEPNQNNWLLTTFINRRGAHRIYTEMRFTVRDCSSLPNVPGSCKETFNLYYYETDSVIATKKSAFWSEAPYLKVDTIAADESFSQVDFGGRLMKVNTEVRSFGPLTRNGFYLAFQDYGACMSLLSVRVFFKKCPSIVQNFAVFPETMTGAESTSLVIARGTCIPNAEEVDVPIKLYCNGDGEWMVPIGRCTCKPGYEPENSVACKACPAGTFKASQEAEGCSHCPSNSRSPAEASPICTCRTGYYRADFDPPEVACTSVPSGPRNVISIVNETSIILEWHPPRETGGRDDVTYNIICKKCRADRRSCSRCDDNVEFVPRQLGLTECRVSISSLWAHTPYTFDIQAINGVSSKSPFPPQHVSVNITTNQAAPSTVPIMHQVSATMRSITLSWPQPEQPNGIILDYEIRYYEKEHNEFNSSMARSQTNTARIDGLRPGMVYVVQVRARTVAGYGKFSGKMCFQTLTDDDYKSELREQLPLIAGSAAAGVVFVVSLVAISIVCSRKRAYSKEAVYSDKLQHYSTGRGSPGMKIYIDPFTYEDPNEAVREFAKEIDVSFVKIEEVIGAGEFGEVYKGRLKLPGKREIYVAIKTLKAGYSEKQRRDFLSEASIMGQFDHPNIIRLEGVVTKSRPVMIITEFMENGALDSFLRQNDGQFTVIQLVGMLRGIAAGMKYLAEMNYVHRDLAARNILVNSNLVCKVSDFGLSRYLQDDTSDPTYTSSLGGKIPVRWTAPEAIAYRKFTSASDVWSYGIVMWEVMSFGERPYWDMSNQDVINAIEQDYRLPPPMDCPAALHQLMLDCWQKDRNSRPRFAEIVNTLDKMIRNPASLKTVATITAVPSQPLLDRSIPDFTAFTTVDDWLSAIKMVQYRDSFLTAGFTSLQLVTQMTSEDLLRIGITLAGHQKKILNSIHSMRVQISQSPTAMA
The label depends only on phosphorylation enrichment: Condition met if it is at least 0.5, Condition not met if it is smaller.

[[record]]
sequence_chain = "ISHVAYRVLGK [TRRAP_Y892]"
class = "Condition not met"

[[record]]
sequence_chain = "FNVLQYVVPKV [EIF3A_Y382_E386K]"
class = "Condition met"

[[record]]
sequence_chain = "ATARPYSPFII [LRP5_Y1528_R1529S_YF]"
class = "Condition not met"

[[record]]
sequence_chain = "PVDVAYRHGYF [PLEC_Y2967_R2969H]"
class = "Condition met"

[[record]]
sequence_chain = "LLKMMYLMLDN [STAT1_Y203_K201M]"
class = "Condition met"

[[record]]
sequence_chain = "SGDVQYRSSVR [FREM2_Y2158_T2153S]"
class = "Condition not met"

[[record]]
sequence_chain = "EKDSNYCLCRT [ASIC2_Y357]"
class = "Condition met"

[[record]]
sequence_chain = "NIFSFYLSRDP [CTSD_Y232]"
class = "Condition met"

[[record]]
sequence_chain = "YIRRDYEACKA [BBS4_Y48_K46R]"
class = "Condition met"

[[record]]
sequence_chain = "MSLRSYGSREG [APC_Y96]"
class = "Condition not met"

[[record]]
sequence_chain = "KKRRSYGNSSD [SELENOK_Y52]"
class = "Condition not met"


* * *

molecular target: SHP2-C SH2; test: SH2 binding enrichment of the phosphorylated peptide, bacterial display (enrichment ratio); higher = better substrate or ligand; peptides without Tyr show the background;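 note: peptide library displayed on the E. coli surface as eCPX fusions, selected cells deep-sequenced, score is each peptide's frequency after selection divided by its frequency in the input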
Binning rule for recorded SH2 binding enrichment: lower band (below 0.6), central band (0.6 to below 0.9), upper band (0.9 or more)

[[record]]
sequence_chain = "RGESFYQDTMN [RARS_Y338_R341T]"
class = "central band"

[[record]]
sequence_chain = "LALTVYADCLA [ABCA4_Y2063_G2059A]"
class = "lower band"

[[record]]
sequence_chain = "YSSLGYPPPEG [ZSWIM4_Y87]"
class = "upper band"

[[record]]
sequence_chain = "GRDQPYSGAGD [TYRO3_Y828]"
class = "central band"

[[record]]
sequence_chain = "VDLSKCITTIA [FAS_Y232_Y232C]"
class = "lower band"

[[record]]
sequence_chain = "SVVVPYERPEV [TP53_Y220_P222R]"
class = "lower band"

[[record]]
sequence_chain = "SYSGEYGGGGG [ZG16_Y30]"
class = "central band"

[[record]]
sequence_chain = "SNPAYYVLEGV [INPPL1_Y987_N982S]"
class = "upper band"

[[record]]
sequence_chain = "EPNSRYTFKLE [USH2A_Y3745_YF]"
class = "central band"

[[record]]
sequence_chain = "EVLKNYSQQKD [GOLGA4_Y1551_N1552S]"
class = "central band"

[[record]]
sequence_chain = "AIYRRYSKFFD [SH3PXD2B_Y45]"
class = "lower band"

[[record]]
sequence_chain = "QEIATYRPLLE [KRT14_Y415_R417P]"
class = "central band"

[[record]]
sequence_chain = "LARHMYDKEYY [MET_Y1230_D1228H]"
class = "upper band"


* * *

target: Fyn (UniProt P06241); test: phosphorylation enrichment, bacterial display (enrichment ratio); higher = better substrate or ligand; peptides without Tyr show the background
Sequence (P06241 whole entry, looked up): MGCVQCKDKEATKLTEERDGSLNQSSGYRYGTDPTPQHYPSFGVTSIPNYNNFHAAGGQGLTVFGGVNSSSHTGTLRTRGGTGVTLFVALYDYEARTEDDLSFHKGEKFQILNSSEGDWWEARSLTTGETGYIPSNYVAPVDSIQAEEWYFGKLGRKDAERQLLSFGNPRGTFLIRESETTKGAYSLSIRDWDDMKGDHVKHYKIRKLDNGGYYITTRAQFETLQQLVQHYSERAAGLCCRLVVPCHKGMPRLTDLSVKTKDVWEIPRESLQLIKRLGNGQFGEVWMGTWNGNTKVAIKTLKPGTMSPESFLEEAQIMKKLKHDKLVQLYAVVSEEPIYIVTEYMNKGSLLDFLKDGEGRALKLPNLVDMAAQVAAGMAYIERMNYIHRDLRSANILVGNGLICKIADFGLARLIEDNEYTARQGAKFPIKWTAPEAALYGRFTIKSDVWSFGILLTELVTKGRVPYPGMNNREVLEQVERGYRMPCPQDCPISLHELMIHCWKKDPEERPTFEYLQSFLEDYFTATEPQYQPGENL
Measured phosphorylation enrichment of individual entries
Readout Label: phosphorylation enrichment

[[record]]
sequence_chain = "TLDTDYQMTKR [ADA_Y308]"
observed_result = 0.483

[[record]]
sequence_chain = "TVVGLYQKSSL [MYH7_Y609]"
observed_result = 0.55

[[record]]
sequence_chain = "MGSYNYLGFAR [SPTLC2_Y178]"
observed_result = 0.758

[[record]]
sequence_chain = "CPPKVYELMRA [ABL2_Y515]"
observed_result = 1.13

[[record]]
sequence_chain = "HNLYSYPTKHE [MYO3A_Y1396]"
observed_result = 5.22

[[record]]
sequence_chain = "EPFEVYRIVPE [IRF8_Y110_K108E_YF]"
observed_result = 3.41

[[record]]
sequence_chain = "GGQEDYDRLRP [RAC3_Y64_A59G]"
observed_result = 0.458

[[record]]
sequence_chain = "NIFSFYLSRDP [CTSD_Y232]"
observed_result = 0.4

[[record]]
sequence_chain = "DNKALYDICFR [TUBB3_Y208_E205K]"
observed_result = 2.6

[[record]]
sequence_chain = "IYLADYRIMEG [ALOX12B_Y318]"
observed_result = 0.738

[[record]]
sequence_chain = "HFECKYVINAI [MAOA_Y268_YF]"
observed_result = 0.709

[[record]]
sequence_chain = "LASSEYPVRRR [GALK1_Y236]"
observed_result = 0.543

[[record]]
sequence_chain = "VVLEDYLDIKN [CLCNKB_Y138]"
observed_result = 0.534

[[record]]
sequence_chain = "ESLSSYWESAK [APOC2_Y47]"
observed_result = 0.414

[[record]]
sequence_chain = "DMDATYRPMFS [JUP_Y701_YF]"
observed_result = 0.592

[[record]]
sequence_chain = "GASWRYGSGVS [NEU1_Y242]"
observed_result = 0.479

[[record]]
sequence_chain = "GLAELYEFQKK [CKAP5_Y1854_K1857Q_YF]"
observed_result = 0.64

[[record]]
sequence_chain = "AHLTEYLSTHF [UQCRC1_Y219_D215H_YF]"
observed_result = 0.471

[[record]]
sequence_chain = "SYSGEYGGGGG [ZG16_Y30]"
observed_result = 0.485

[[record]]
sequence_chain = "ERIEFYELDKK [PMM2_Y145]"
observed_result = 0.484

[[record]]
sequence_chain = "EFDRLYEEFTR [PIK3R1_Y467_YF]"
observed_result = 7.47

[[record]]
sequence_chain = "HYGNNYRDVLQ [MACC1_Y803]"
observed_result = 0.353

[[record]]
sequence_chain = "DGNIDYAEFAK [MCFD2_Y138_Y135N]"
observed_result = 0.804

[[record]]
sequence_chain = "KLQKFYRQNPD [EHHADH_Y683_YF]"
observed_result = 0.418

[[record]]
sequence_chain = "ATPKGYETDAS [OTC_Y223_P225T]"
observed_result = 0.44

[[record]]
sequence_chain = "QFPDVYAREEV [CRX_Y67_YF]"
observed_result = 0.624

[[record]]
sequence_chain = "EPDSLYGCGGG [ATM_Y2019]"
observed_result = 2.06

[[record]]
sequence_chain = "SFNNKYGMVAQ [APOB_Y276_K273N_YF]"
observed_result = 0.395

[[record]]
sequence_chain = "SPFAVYRFFTF [RPGRIP1_Y826_YF]"
observed_result = 0.68

[[record]]
sequence_chain = "GRDQPYSGAGD [TYRO3_Y828]"
observed_result = 0.623


* * *

molecular target: MERTK (UniProt Q12866); experiment: phosphorylation enrichment, bacterial display (enrichment ratio); higher = better substrate or ligand; peptides without Tyr show the background
Sequence (Q12866 whole entry, looked up): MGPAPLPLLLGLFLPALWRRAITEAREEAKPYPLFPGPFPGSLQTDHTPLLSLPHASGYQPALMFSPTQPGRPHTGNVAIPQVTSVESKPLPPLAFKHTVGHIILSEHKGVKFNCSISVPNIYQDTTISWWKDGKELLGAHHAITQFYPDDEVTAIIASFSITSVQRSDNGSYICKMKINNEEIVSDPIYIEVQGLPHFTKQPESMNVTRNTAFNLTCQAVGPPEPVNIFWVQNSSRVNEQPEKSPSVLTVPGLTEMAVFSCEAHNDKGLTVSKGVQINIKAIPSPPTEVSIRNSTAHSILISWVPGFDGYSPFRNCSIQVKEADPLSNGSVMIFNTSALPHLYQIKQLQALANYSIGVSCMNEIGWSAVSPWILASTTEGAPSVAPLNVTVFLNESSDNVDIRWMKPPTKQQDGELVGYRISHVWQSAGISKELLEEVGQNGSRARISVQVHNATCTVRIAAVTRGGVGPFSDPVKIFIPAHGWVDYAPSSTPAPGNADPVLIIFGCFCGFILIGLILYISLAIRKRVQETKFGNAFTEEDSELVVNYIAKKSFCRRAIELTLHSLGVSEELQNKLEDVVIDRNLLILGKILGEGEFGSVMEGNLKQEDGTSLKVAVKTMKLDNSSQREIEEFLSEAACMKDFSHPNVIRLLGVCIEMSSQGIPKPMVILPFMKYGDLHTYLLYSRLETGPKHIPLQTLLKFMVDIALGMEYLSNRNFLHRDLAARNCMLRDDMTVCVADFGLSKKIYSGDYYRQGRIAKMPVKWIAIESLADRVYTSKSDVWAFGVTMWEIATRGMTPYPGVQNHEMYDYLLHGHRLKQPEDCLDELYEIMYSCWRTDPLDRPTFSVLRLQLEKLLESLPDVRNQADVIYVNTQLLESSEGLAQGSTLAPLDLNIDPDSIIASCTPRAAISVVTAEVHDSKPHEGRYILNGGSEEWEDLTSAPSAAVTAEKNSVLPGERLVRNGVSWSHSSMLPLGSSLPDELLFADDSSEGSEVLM
Readout Label: phosphorylation enrichment

[[record]]
sequence_chain = "FARNSYVAGQF [G6PD_Y107_YF]"
tested_on = "MERTK (UniProt Q12866)"
readout_label = "phosphorylation enrichment"
observed_result = 0.427

[[record]]
sequence_chain = "ESLSSYWESAK [APOC2_Y47]"
tested_on = "MERTK (UniProt Q12866)"
readout_label = "phosphorylation enrichment"
observed_result = 0.381

[[record]]
sequence_chain = "RNGNRYFKGIV [DCX_Y64_D62N]"
tested_on = "MERTK (UniProt Q12866)"
readout_label = "phosphorylation enrichment"
observed_result = 0.701

[[record]]
sequence_chain = "IGHGSYAKVLL [PRKCZ_Y263_R260H]"
tested_on = "MERTK (UniProt Q12866)"
readout_label = "phosphorylation enrichment"
observed_result = 0.57

[[record]]
sequence_chain = "RLLRGYNQSAF [HLA-C_Y137_D138N_YF]"
tested_on = "MERTK (UniProt Q12866)"
readout_label = "phosphorylation enrichment"
observed_result = 0.56

[[record]]
sequence_chain = "CTTIRYNFMCN [TP53_Y234_H233R_YF]"
tested_on = "MERTK (UniProt Q12866)"
readout_label = "phosphorylation enrichment"
observed_result = 0.407

[[record]]
sequence_chain = "RKKEEYKMALF [F8_Y1990_YF]"
tested_on = "MERTK (UniProt Q12866)"
readout_label = "phosphorylation enrichment"
observed_result = 0.391

[[record]]
sequence_chain = "AEFGLYRAMVR [VSX2_Y222_G223R_YF]"
tested_on = "MERTK (UniProt Q12866)"
readout_label = "phosphorylation enrichment"
observed_result = 0.843

[[record]]
sequence_chain = "FPLELYERVRI [PRKCG_Y312_M317I_YF]"
tested_on = "MERTK (UniProt Q12866)"
readout_label = "phosphorylation enrichment"
observed_result = 0.453

[[record]]
sequence_chain = "EPFEVYRIVPE [IRF8_Y110_K108E_YF]"
tested_on = "MERTK (UniProt Q12866)"
readout_label = "phosphorylation enrichment"
observed_result = 0.62

[[record]]
sequence_chain = "GYKVRYATWSI [FGFR1_Y210]"
tested_on = "MERTK (UniProt Q12866)"
readout_label = "phosphorylation enrichment"
observed_result = 0.657

[[record]]
sequence_chain = "LSSNLYYRWLT [CNGA3_Y168_P163L]"
tested_on = "MERTK (UniProt Q12866)"
readout_label = "phosphorylation enrichment"
observed_result = 20.4

[[record]]
sequence_chain = "PTTKTYFPRFD [HBA1_Y43_H46R]"
tested_on = "MERTK (UniProt Q12866)"
readout_label = "phosphorylation enrichment"
observed_result = 0.373

[[record]]
sequence_chain = "FPHVIYARLWR [SMAD4_Y95]"
tested_on = "MERTK (UniProt Q12866)"
readout_label = "phosphorylation enrichment"
observed_result = 1.5

